# credit: the supplement of paper PMC9732359

- Assay Info: protein stability index of a GFP-peptide fusion (yeast GPS) (PSI 1-4); higher = more stable; sorted into four equal gates, so the index is relative within each strain
- Conditions Used: ubr1∆
Lab note: anything with protein stability index at or over 3 counts as Met; the rest go in Not met.

Reference set (3 entries):
* KNGKIYLKHNSIAEEIP [RET1] | Not met
* KCLVEKSICFENCLNND [SWI1] | Not met
* WIQVFGLRTENVLDYFA [MED6] | Not met

Task: // inclusive: protein stability index at least 3? input: NATVNLAMEAILNELEV [YJR042W/NUP85]
Result: Not met

Task: // inclusive: protein stability index at least 3? input: QALEKIGIVEISPKGGR [RPS19A]
Result: Not met

Task: // inclusive: protein stability index at least 3? input: NVKNYSTTQEILEFITA [RPC34]
Result: Not met

Task: // inclusive: protein stability index at least 3? input: EQTVEYMVSRAIRDGVI [RPN3]
Result: Met

Task: // inclusive: protein stability index at least 3? input: LPQCIIPSSYIKRTDEG [ARP7]
Result: Not met

Task: // inclusive: protein stability index at least 3? input: AKLRKELVETSEVRKAV [FAS2]
Result: Not met

Task: // inclusive: protein stability index at least 3? input: MNGNTNANTVFAGSNNQ [YOR098C/NUP1]
Result: Met

* * *

- Assay Info: protein stability index of a GFP-peptide fusion (yeast GPS) (PSI 1-4); higher = more stable; sorted into four equal gates, so the index is relative within each strain
- Conditions Used: san1∆
Category | rule: reported protein stability index within range, see lower band: < 2; central band: ≥ 2 and < 3; upper band: ≥ 3

Task: Form: Item = DAGKIDKHLYHVLYKES [RPL19A] ; Class = ?
Result: central band

Task: Form: Item = SPAGKYKRQKSSLLYTY [ESC2] ; Class = ?
Result: lower band

Task: Form: Item = PGNRNADNVDKILEQFE [FAS2] ; Class = ?
Result: central band

Task: Form: Item = NGLAIRRAAYGVVRYVM [RPS3] ; Class = ?
Result: lower band

Task: Form: Item = RVKVHFDQAGKKVSRRN [RPL13A] ; Class = ?
Result: upper band

Task: Form: Item = KAKVDDLVLGKPLADLR [YLR335W/NUP2] ; Class = ?
Result: upper band

Task: Form: Item = MSDEDNNYDDFMLSDDE [RRI2] ; Class = ?
Result: upper band

Task: Form: Item = SNNELVRTNTLTKAAIV [RPS8A] ; Class = ?
Result: central band

Task: Form: Item = TLENTLKAAFVAIGNTY [RPS2] ; Class = ?
Result: lower band

Task: Form: Item = QVLVCTATLAWGVNLPA [BRR2] ; Class = ?
Result: central band

Task: Form: Item = KELDALQEKEQLYFKKK [ISW2] ; Class = ?
Result: upper band

Task: Form: Item = NTQLHGPSATDPETTAT [RGR1] ; Class = ?
Result: central band

Task: Form: Item = STPNFGGNSNKSPPQFF [SIN4] ; Class = ?
Result: central band

Task: Form: Item = SYVAVLGMGKAVEKTLA [POP7] ; Class = ?
Result: lower band

* * *

- Assay Info: protein stability index of a GFP-peptide fusion (yeast GPS) (PSI 1-4); higher = more stable; sorted into four equal gates, so the index is relative within each strain
- Conditions Used: ubr1∆
Measurement Type: protein stability index

A selection of reference data follows.
* TFHDELNLKFKEKWPSL [YML103C/NUP188] | 3.09
* QKYVGEGARMVRELFEM [RPT1] | 2.92
* HKPNEGRTPNISNGTIN [SIR4] | 3.07
* NPMKKHKPNEGRTPNIS [SIR4] | 2.97
* ITNTDETITTKRVPNPN [SWP82] | 3.21
* VEMAWIMGFISYHNGNL [FAS2] | 3.06

Task: Field request: protein stability index | item: DYNKKQDRIQDVKLVLA [MED1]
Result: 2.28

Task: Field request: protein stability index | item: QKLWLLECQLFPQGLNI [SSN8]
Result: 2.11

Task: Field request: protein stability index | item: YRFYEYIYSQETKSWIN [MED1]
Result: 1.82

Task: Field request: protein stability index | item: KKAAEEAGVTDVKVSIS [FAS2]
Result: 1.18

Task: Field request: protein stability index | item: NKVQIMIATNVAARGLD [PRP28]
Result: 1.19

Task: Field request: protein stability index | item: QFSESTHNDIDSTAVAL [YJL039C/NUP192]
Result: 3.16

Task: Field request: protein stability index | item: YTAVDTAKLQMRRFILG [RPN14]
Result: 1.25

Task: Field request: protein stability index | item: NFPVRQWSIEIVLLDDE [TAF14]
Result: 2.19

Task: Field request: protein stability index | item: IQPTAKVVYIQRRSWRQ [DIS3]
Result: 1.16

Task: Field request: protein stability index | item: LSTLRMEADPSLHPLFE [RPN9]
Result: 2.41

Task: Field request: protein stability index | item: HNMKAYYKKFLIEPLPT [BRR2]
Result: 1.44

* * *

- Assay Info: protein stability index of a GFP-peptide fusion (yeast GPS) (PSI 1-4); higher = more stable; sorted into four equal gates, so the index is relative within each strain
- Conditions Used: ubr1∆
protein stability index overview
Give the figure by itself; no unit, no explanation.

A selection of reference data follows.
* DITGIRDVSDDVFDTLA [GRR1] | 2.97
* ETRRKTTTVLKRYANHT [RET1] | 2.94

Kindly consider the entry below.
Task: Field request: protein stability index | item: MLLGTDLCSLKPYVDRF [DIS3]
Result: 2.92

* * *

- Assay Info: protein stability index of a GFP-peptide fusion (yeast GPS) (PSI 1-4); higher = more stable; sorted into four equal gates, so the index is relative within each strain
- Conditions Used: san1∆
Measurement Type: protein stability index
Give the figure by itself; no unit, no explanation.

A selection of reference data follows.
- PLSESLRLVDDDENNPS [RRP6]: 2.98
- SNKSNSTNESNKSISDE [SSN2]: 3.05

Task: Field request: protein stability index | item: LVLLNGRLRNKSHKQTI [RPP1]
Result: 2.98

Task: Field request: protein stability index | item: GEIVSINQINEAHPTKV [RPL20A]
Result: 3.06

Task: Field request: protein stability index | item: PVLDNPFTNEAHMWPRV [POP3]
Result: 2.99

* * *

- Assay Info: protein stability index of a GFP-peptide fusion (yeast GPS) (PSI 1-4); higher = more stable; sorted into four equal gates, so the index is relative within each strain
- Conditions Used: san1∆
Measurement Type: protein stability index

• ILGQTMSIGTGSFKVVK [RPO31] = 1.97

Kindly consider the entry below.
Task: Field request: protein stability index | item: LRRIITDLNQDSAAIIA [GRR1]
Result: 2.6

* * *

- Assay Info: protein stability index of a GFP-peptide fusion (yeast GPS) (PSI 1-4); higher = more stable; sorted into four equal gates, so the index is relative within each strain
- Conditions Used: ubr1∆
protein stability index overview

A selection of reference data follows.
* KLTAERANLRKYREGQV [POP1] | 3.01
* STFTKHLIKCFFKITLQ [ITC1] | 1.6
* GIFEKAKAKAVTSKVRN [YMR153W/NUP53] | 2.38
* VKTTLVSLTQLRCVKYL [RPC82] | 1.37
* ERHQKQLNEKLVGRLRK [YCS4] | 3

Task: Field request: protein stability index | item: VSDDESNGEVLEVGKNN [RPN14]
Result: 3.24

Task: Field request: protein stability index | item: QRETYDSNESDDDVTPS [YLR335W/NUP2]
Result: 2.65

* * *

- Assay Info: protein stability index of a GFP-peptide fusion (yeast GPS) (PSI 1-4); higher = more stable; sorted into four equal gates, so the index is relative within each strain
- Conditions Used: pdr5∆
protein stability index overview
Give the figure by itself; no unit, no explanation.

A selection of reference data follows.
• RITNSFYSTNSQYFKFK [RPN9] = 2.38
• DMLLHKYYIVSSSKSMI [SRB8] = 1.47
• LQDLISVYGLDDISRQV [ROX3] = 2.88
• AQFQYTLDRNTAAETFK [RPL8A] = 2.08
• NGGVGVDVELITSINVE [FAS2] = 3.18

Task: Field request: protein stability index | item: SNELIEHFSHFGHIMED [YDL088C/ASM4]
Result: 3.09

Task: Field request: protein stability index | item: EVYDFTHAVGNNCEDFV [FAS1]
Result: 3
